Measured values drawn from paper PMC4708625 for this set.

Biological target: Carboxylesterase 1 isoform b (Ces1b) (Homo sapiens, UniProt P23141)
Construct: gene CES1
Assay: dose response of Amplex Red to resorufin conversion by recombinant Ces1b (fluorescence)
Type: biochemical
measure: IC50

Query O=S(=O)(F)Cc1ccccc1 [PMSF, Phenylmethyl sulfonyl fluoride] yields IC50 of ~5 µM

* * *

Target: Carboxylesterase 1 isoform b (Ces1b) (Homo sapiens)
Construct: gene CES1
Sequence (P23141 18-567): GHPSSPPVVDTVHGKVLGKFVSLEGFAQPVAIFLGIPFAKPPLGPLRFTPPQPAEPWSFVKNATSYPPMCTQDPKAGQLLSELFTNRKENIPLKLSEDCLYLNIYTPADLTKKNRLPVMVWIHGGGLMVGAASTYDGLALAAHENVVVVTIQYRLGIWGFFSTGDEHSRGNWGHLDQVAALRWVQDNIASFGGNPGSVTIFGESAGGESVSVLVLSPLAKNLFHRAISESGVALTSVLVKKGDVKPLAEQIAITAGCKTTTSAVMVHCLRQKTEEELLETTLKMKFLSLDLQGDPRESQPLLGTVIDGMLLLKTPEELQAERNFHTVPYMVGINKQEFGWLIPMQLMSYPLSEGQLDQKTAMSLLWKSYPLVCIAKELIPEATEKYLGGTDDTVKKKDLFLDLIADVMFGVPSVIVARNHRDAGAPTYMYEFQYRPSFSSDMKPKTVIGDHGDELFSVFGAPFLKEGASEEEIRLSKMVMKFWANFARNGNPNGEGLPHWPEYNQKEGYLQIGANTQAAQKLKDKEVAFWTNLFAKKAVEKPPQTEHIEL
Assay: inhibition of Amplex Red to resorufin conversion by recombinant Ces1b (fluorescence)
Assay type: biochemical
pIC50: −log10 of the molar value.
measure: pIC50

So for O=[N+]([O-])c1ccc(OP(=O)(O)Oc2ccc([N+](=O)[O-])cc2)cc1 [BNPP, bis(4-nitrophenyl)phosphate] , the logged pIC50 turned out to be ~6.82
